- Tested on: Influenza A virus H3N2
- measurement.description: Antiviral activity against Influenza A virus H3N2 VR1679 infected in MDCK cells assessed as inhibition of virus-induced cytocidal activity after 48 hrs by CellTiter-Glo assay
- Assay type: functional, organism-based
observation.type: EC50

Query: Supply measured EC50 of CCOC(=O)C1=C[C@@H](OC(CC)CC)[C@H](NC(C)=O)[C@@H](N)C1 [OSELTAMIVIR] in your reply.
Result: > 80 µM

The measured values listed here are drawn from ChEMBL document CHEMBL3351411.
